- target.system: Ba/F3-TPR-MET cells (Homo sapiens, UniProt P08581)
- Construct: fused on or other part: P12270 (Nucleoprotein TPR)
- Sequence (P08581 whole entry, change not shown, the tested form may be a part): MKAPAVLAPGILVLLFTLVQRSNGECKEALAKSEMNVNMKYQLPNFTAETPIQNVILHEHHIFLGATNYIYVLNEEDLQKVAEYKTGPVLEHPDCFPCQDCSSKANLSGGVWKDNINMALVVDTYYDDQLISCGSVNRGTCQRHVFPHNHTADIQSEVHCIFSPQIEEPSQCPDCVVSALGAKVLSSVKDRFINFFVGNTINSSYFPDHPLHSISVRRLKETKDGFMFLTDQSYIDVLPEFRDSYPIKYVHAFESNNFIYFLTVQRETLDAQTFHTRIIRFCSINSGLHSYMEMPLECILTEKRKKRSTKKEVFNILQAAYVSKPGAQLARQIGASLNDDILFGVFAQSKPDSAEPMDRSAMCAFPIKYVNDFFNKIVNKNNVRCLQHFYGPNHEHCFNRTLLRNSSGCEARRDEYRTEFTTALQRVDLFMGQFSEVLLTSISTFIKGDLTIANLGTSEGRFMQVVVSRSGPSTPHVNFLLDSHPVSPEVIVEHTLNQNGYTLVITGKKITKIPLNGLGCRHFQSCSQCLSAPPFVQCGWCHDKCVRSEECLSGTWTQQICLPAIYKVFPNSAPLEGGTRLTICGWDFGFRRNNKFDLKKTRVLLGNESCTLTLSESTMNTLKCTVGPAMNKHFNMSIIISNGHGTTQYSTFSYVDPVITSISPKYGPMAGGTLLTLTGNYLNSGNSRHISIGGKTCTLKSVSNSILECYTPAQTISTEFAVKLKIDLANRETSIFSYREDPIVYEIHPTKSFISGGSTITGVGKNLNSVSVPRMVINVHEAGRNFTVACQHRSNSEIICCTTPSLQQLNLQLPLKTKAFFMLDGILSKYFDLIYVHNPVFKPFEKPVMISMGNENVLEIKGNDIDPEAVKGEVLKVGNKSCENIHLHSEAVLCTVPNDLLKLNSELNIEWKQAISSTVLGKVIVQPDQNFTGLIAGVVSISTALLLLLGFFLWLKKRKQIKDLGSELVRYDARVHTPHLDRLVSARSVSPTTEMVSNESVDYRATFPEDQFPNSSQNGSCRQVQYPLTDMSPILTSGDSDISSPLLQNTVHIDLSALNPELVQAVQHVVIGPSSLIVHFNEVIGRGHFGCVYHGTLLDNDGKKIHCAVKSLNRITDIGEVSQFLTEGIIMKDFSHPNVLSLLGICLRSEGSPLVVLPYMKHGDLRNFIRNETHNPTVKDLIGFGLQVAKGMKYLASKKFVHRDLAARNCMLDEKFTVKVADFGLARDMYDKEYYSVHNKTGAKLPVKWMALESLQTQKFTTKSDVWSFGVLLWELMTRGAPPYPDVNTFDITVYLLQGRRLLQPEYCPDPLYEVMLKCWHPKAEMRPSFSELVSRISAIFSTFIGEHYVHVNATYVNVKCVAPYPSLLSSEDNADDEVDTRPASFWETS
- procedure.text: CellTiter-Glo Cell Viability Assay, Ba/F3-TPR-MET
- condition.notes: 72 hours
- Method: Ba/F3-TPR-MET and Ba/F3-TPR-MET-D1228N cells were seeded at 3000 cells per well in a 96 well plate in 90 μL growth media and allowed to incubate overnight at 37° C. with 5% CO2. […] The CellTiter-Glo® 2.0 Assay determines the number of viable cells in culture by quantifying ATP, which indicates the presence of metabolically active cells. Luminescence readout is directly proportional to the number of viable cells in culture. […]
pEC50: −log10 of the molar value.
# pEC50 annotations
value.kind: pEC50

INSERT INTO assay_data (compound, target_system, recorded_result) VALUES
  ('CNCCOc1cc2nccc(Oc3ccc(NC(=O)c4c(OC)ccnc4F)c(F)c3F)c2cc1OC [Example 15]', 'Ba/F3-TPR-MET cells (Homo sapiens, UniProt P08581)', '6.00 to 7.00'),
  ('COc1cc2nccc(Oc3c(F)cc(NC(=O)c4cnccc4OC)cc3F)c2cc1OCCO [Example 122]', 'Ba/F3-TPR-MET cells (Homo sapiens, UniProt P08581)', '≥ 7.00'),
  ('CNCCOc1cc2nccc(Oc3c(F)cc(NC(=O)c4cnccc4OCC(C)(C)O)cc3F)c2cc1OC [Example 66]', 'Ba/F3-TPR-MET cells (Homo sapiens, UniProt P08581)', '6.00 to 7.00'),
  ('COc1cc2nccc(Oc3c(F)cc(NC(=O)c4c(OC5CC5)ccnc4F)cc3F)c2nc1OC [Example 144]', 'Ba/F3-TPR-MET cells (Homo sapiens, UniProt P08581)', '≥ 7.00'),
  ('COc1ccncc1C(=O)Nc1cc(F)c(Oc2ccnc3cc(OCCO)c(OC)nc23)c(F)c1 [Example 138]', 'Ba/F3-TPR-MET cells (Homo sapiens, UniProt P08581)', '≥ 7.00'),
  ('CCOc1ccncc1C(=O)Nc1cc(F)c(Oc2ccnc3cc(OCCCN(C)C)c(OC)cc23)cc1F [Example 23]', 'Ba/F3-TPR-MET cells (Homo sapiens, UniProt P08581)', '6.00 to 7.00'),
  ('COc1cc2c(Oc3c(F)cc(NC(=O)c4cnccc4OC4CC4)cc3F)ccnc2cc1OCCCN1CCOCC1 [Example 53]', 'Ba/F3-TPR-MET cells (Homo sapiens, UniProt P08581)', '≥ 7.00'),
  ('CNCCOc1cc2nccc(Oc3c(F)cc(NC(=O)c4cnccc4OC4CC(F)(F)C4)cc3F)c2cc1OC [Example 57]', 'Ba/F3-TPR-MET cells (Homo sapiens, UniProt P08581)', '6.00 to 7.00'),
  ('COCCOc1cnc2c(Oc3c(F)cc(NC(=O)c4ccccc4F)cc3F)ccnc2c1 [Example 140]', 'Ba/F3-TPR-MET cells (Homo sapiens, UniProt P08581)', '≥ 7.00'),
  ('COc1cc2nccc(Oc3c(F)cc(NC(=O)c4c(OCC(F)F)ccnc4F)cc3F)c2cc1OCCO [Example 142]', 'Ba/F3-TPR-MET cells (Homo sapiens, UniProt P08581)', '≥ 7.00');

---

# EC50 annotations
- target.system: Ba/F3-TPR-MET-D1228N cells (Homo sapiens, UniProt P08581, D1228N, cells depend on it)
- Construct: fused on or other part: P12270 (Nucleoprotein TPR)
- Sequence (P08581 whole entry D1228N, the tested form may be a part): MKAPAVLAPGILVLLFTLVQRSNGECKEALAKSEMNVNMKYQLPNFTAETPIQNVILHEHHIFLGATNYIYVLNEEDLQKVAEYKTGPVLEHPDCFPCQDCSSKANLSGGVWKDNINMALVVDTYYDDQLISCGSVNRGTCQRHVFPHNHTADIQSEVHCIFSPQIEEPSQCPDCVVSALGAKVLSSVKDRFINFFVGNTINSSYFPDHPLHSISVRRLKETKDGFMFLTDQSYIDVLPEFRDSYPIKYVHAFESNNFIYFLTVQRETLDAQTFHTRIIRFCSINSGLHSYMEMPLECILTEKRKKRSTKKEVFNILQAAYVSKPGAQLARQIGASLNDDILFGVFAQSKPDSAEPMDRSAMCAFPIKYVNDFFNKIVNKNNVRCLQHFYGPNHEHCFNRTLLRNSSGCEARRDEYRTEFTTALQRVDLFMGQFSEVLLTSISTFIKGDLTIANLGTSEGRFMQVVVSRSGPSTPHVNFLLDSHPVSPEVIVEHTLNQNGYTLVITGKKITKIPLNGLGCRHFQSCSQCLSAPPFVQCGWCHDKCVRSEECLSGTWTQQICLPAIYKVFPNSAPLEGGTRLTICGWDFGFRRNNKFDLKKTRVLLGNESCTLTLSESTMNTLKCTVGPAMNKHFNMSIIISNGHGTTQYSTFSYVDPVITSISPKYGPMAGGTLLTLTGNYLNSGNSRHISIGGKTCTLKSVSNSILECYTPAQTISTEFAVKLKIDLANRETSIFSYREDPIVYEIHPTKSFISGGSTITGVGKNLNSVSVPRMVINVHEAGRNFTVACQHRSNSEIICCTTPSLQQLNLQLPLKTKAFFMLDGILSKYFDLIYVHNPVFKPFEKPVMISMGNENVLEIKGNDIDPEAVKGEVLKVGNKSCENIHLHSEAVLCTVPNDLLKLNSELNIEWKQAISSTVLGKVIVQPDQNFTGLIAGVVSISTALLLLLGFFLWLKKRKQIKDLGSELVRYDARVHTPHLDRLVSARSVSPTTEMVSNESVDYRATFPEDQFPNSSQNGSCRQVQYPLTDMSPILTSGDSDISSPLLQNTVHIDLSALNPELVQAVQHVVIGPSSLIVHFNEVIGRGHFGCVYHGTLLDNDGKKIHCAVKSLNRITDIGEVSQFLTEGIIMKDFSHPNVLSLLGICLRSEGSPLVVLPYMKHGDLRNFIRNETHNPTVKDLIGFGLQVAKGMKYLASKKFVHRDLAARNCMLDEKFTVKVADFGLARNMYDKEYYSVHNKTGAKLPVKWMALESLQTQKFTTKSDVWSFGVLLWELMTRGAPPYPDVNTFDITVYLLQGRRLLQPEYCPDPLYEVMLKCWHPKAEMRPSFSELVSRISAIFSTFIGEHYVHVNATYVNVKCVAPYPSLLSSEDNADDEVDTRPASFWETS
- procedure.text: CellTiter-Glo Cell Viability Assay, Ba/F3-TPR-MET-D1228N
- condition.notes: 72 hours
value.kind: EC50

INSERT INTO measurements (query_smiles, recorded_result) VALUES
  ('CNCCOc1cc2nccc(Oc3c(F)cc(NC(=O)c4cnccc4OC[C@@H](C)O)cc3F)c2cc1OC', '≤ 100 nM'),
  ('COCCOc1cc2nccc(Oc3c(F)cc(NC(=O)c4cnccc4OC4CC4)cc3F)c2cc1OC', '≤ 100 nM'),
  ('CNCCOc1cc2nccc(Oc3c(F)cc(NC(=O)c4cnccc4OC(C)C)cc3F)c2cc1OC', '≤ 100 nM'),
  ('CNCCOc1cc2nccc(Oc3c(F)cc(NC(=O)c4cnc(Cl)cc4OC)cc3F)c2cc1OC', '100 to 1000 nM');
